TARGET OF ASSAY: recombinant eIF4E (Homo sapiens (Human))
ASSAY METHOD TEXT: Fluorescence polarization competition assay for eIF4E binding potency
CONDITION INFO: inhibition of eIF4E/EDA-m7GDP-ATTO-550 binding; calculated IC50 values, Table 4B; read-out: IC50
Kindly apply the following: Fulfilled if IC50 is less than 30 nM, Not fulfilled in every other case.

Look over these answered cases.
1) Cc1nc2cnc(N3CCC[C@@H]4CN(CC(F)F)CC[C@@H]43)c(C#N)c2c(=O)n1CC#Cc1ccc(Cl)cc1-c1ccnc2c(C(=O)O)csc12 [compound 1544] :: Fulfilled
2) Cc1nc2cnc(N3CC(N4CC(F)(F)C4)C3)c(C#N)c2c(=O)n1CCOc1ccc(Cl)cc1-c1ccnc2c(C(=O)O)csc12 [compound 1341] :: Fulfilled
3) Cc1nc2cc(C(F)(F)F)c(N3CCC4(CC3)CN(CC(F)F)C4)c(C#N)c2c(=O)n1CCOc1ccc(Cl)cc1-c1ccnc2c(C(=O)O)csc12 [compound 1912] :: Fulfilled

is_below(IC50, 30 nM) for CCN(c1ncc2nc(C)n(CC#Cc3ccc(Cl)cc3-c3ccnc4c(C(=O)NS(C)(=O)=O)csc34)c(=O)c2c1C#N)C1CCN([C@H]2C[C@@H](OC(F)(F)F)C2)CC1 [compound 1776] ?
Fulfilled

In plain terms, does Cc1nc2cnc(N3CCN(CC(C)(C)F)CC3)c(C#N)c2c(=O)n1CCOc1ccc(Cl)cc1-c1ccnc2c(C(=O)O)csc12 [compound 1317] come in under 30 nM for IC50?
Not fulfilled

Is it true that IC50 reported for Cc1nc2cc(F)cc(C#N)c2c(=O)n1CCOc1ccc(Cl)cc1-c1ccnc2c(C(=O)O)csc12 [compound 1937] is less than 30 nM?
Not fulfilled

For CCN(c1ncc2nc(C)n(CC#Cc3ccc(Cl)cc3-c3ccnc4c(C(=O)NS(=O)(=O)c5cccnc5)csc34)c(=O)c2c1C#N)C1CCN(CC(F)(F)C(F)F)CC1 [compound 1709] , is the recorded IC50 below the cut-off of 30 nM?
Fulfilled

Is it true that IC50 reported for Cc1nc2cnc(N(C)C3CCN(C4CC(F)(F)C4)CC3)c(C#N)c2c(=O)n1CC#Cc1ccc(Cl)cc1-c1ccnc2c(C(=O)NS(=O)(=O)C(C)(C)C)csc12 [compound 1812] is less than 30 nM?
Fulfilled

Is 30 nM strictly greater than the compound's reported IC50? compound: CC(=O)c1csc2c(-c3cc(Cl)ccc3C#CCn3c(C)nc4cnc(N(C)[C@H]5C[C@H]6CC[C@@H](C5)N6CC(F)F)c(C#N)c4c3=O)ccnc12 [compound 1406]
Fulfilled

Please indicate whether the reported IC50 of Cc1nc2cnc(CCCN(C)CCF)c(C#N)c2c(=O)n1CCOc1ccc(Cl)cc1-c1ccnc2c(C(=O)O)csc12 [compound 1345] is strictly below 30 nM.
Not fulfilled

Dear colleague, could you confirm whether IC50 of Cc1nc2cnc(N3CC4(CNC4)C3)c(C#N)c2c(=O)n1CC#Cc1ccc(Cl)cc1-c1ccnc2c(C(=O)O)csc12 [compound 1633] falls below 30 nM? Thanks.
Not fulfilled

---

Give log10(IC50) for every item shown.
TARGET OF ASSAY: recombinant eIF4E (Homo sapiens (Human), UniProt P06730)
Sequence (P06730 whole entry): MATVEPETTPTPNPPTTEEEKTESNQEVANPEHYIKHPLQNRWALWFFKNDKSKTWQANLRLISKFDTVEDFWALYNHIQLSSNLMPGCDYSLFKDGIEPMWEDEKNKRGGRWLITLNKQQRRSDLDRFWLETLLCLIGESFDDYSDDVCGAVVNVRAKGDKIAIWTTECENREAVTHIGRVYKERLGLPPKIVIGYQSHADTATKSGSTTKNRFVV
ASSAY METHOD TEXT: Fluorescence polarization competition assay for eIF4E binding potency
CONDITION INFO: inhibition of eIF4E/EDA-m7GDP-ATTO-550 binding; calculated IC50 values, Table 4B; read-out: IC50
Short version: log10 scale, IC50, µM.

1) Cc1nc2cnc(N(C)C3CCN(C4CC(F)(F)C4)CC3)c(C#N)c2c(=O)n1CC#Cc1ccc(Cl)cc1-c1ccnc2c(C(=O)NS(=O)(=O)C3CC3)csc12 [compound 1809] :: -2.12
2) CCc1cc(-c2cc(Cl)ccc2OCCn2c(C)nc3cc(C(F)(F)F)c(N4CCN(C)CC4)c(C#N)c3c2=O)cc(C(=O)O)n1 [compound 1223] :: -2.55
3) Cc1nc2cnc(N(C)C3CCN(C4CC(F)(F)C4)CC3)c(C#N)c2c(=O)n1CC#Cc1ccc(Cl)cc1-c1ccnc2c(C(=O)NS(=O)(=O)CC(C)(C)C#N)csc12 [compound 1827] :: -1.83

Please give log10(IC50), item by item, for the list that follows.
1. Cc1sc2c(-c3cc(Cl)ccc3OCCn3c(C)nc4cc(C(F)(F)F)c(CC5CN(C)C5)c(C#N)c4c3=O)ccnc2c1C(=O)O [compound 1283]
2. Cc1nc2cnc(-c3ccc(CN(C)C)nc3)c(C#N)c2c(=O)n1CCOc1ccc(Cl)cc1-c1ccnc2c(C(=O)O)csc12 [compound 1325]
3. Cc1cc(-c2c(C(F)F)cc3nc(C)n(CCOc4ccc(Cl)cc4-c4cc(C)nc5c(C(=O)O)csc45)c(=O)c3c2C#N)cc(C)n1 [compound 1385]
4. Cc1nc2ccc3c(c2c(=O)n1CCOc1ccc(Cl)cc1-c1cccc(C(=O)O)c1)C(=O)N(C)C3 [compound 2011]
5. Cc1nc2cnc(N(C)C3CCN(CCOC(F)F)CC3)c(C#N)c2c(=O)n1CCOc1ccc(Cl)cc1-c1ccnc2c(C(=O)O)csc12 [compound 1513]
6. Cc1nc2cnc(N(C)[C@@H]3C[C@@H]4CN(CC(F)F)C[C@@H]4C3)c(C#N)c2c(=O)n1CC#Cc1ccc(Cl)cc1-c1ccnc2c(C(=O)O)csc12 [compound 1531]
7. Cc1cc(-c2cc(Cl)ccc2OCCn2c(C)nc3cnc(N4[C@@H]5C[C@H]4CN(C)C5)c(C#N)c3c2=O)c2sc(C)c(C(=O)O)c2n1 [compound 1203]

1. -1.47
2. -1.57
3. -2.14
4. -0.28
5. -1.87
6. -1.87
7. -2.04

Can you give me log10(IC50) for all of these, one by one?
1. Cc1nc2cnc(N(C)C3CCN(CC(F)(F)C(F)F)CC3)c(C#N)c2c(=O)n1CC#Cc1ccc(Cl)cc1-c1ccnc2c(C(=O)NS(=O)(=O)c3ccccn3)csc12 [compound 1706]
2. Cc1nc2cc(S(=O)(=O)N(C)C)c(Cl)c(C#N)c2c(=O)n1CCOc1ccc(Cl)cc1-c1ccnc2c(C(=O)O)csc12 [compound 1948]
3. Cc1nc2cc(C(F)(F)F)c(N3CCN(C)CC3)c(C#N)c2c(=O)n1CCOc1ccc(Cl)cc1-c1ccnc(C(=O)O)c1 [compound 1221]
4. Cc1nc2cnc(N(C)C3CCN(CC(F)(F)F)CC3)c(C#N)c2c(=O)n1CC#Cc1ccc(Cl)cc1-c1ccnc2c(C(=O)NS(=O)(=O)c3cn(C)cn3)csc12 [compound 1667]

-1.92
-1.45
-1.52
-1.91

Below is a list of compounds. For each, state its recorded log10(IC50).
1. N#Cc1cccc2nc(C(F)F)n(CCOc3ccc(Cl)cc3-c3cccc(C(=O)O)c3)c(=O)c12 [compound 1973]
2. Cc1nc2cnc(N3CCN(CCS(C)(=O)=O)CC3)c(C#N)c2c(=O)n1CCOc1ccc(Cl)cc1-c1ccnc2c(C(=O)O)csc12 [compound 1339]

1. -1.84
2. -1.44

Give me log10(IC50) for each of these compounds, listed below.
1. N#Cc1ccc(C#N)c2c(=O)n(CCOc3ccc(Cl)cc3-c3ccnc4c(C(=O)O)csc34)c(C(F)F)nc12 [compound 1943]
2. CCN(c1ncc2nc(C)n(CC#Cc3ccc(Cl)cc3-c3ccnc4c(C(=O)O)csc34)c(=O)c2c1C#N)C1CCN(CC(F)(F)C(F)F)CC1 [compound 1191]
3. Cc1cc(-c2cc(Cl)ccc2OCCn2c(C)nc3c(C#N)nc(C4CC4)c(C)c3c2=O)c2scc(C(=O)O)c2n1 [compound 1964]

-1.37
-1.89
-1.30
